target: Trx-6×His-BCL6 (human BCL6 BTB domain covering amino-acid sequence 5-129) (Homo sapiens); construct: made in house; experiment: HTRF assay (BCL6 / BCOR peptide); format: binding; settings: 1 nM Trx-6×His-BCL6, 300 nM BCOR-AF633 peptide, 2 hours incubation at room temperature; read-out: HTRF avg pIC50 (converted)
Give measured IC50 for each item. Keep answers brief.
A number alone suffices; assume nM.

Lookup: IC50 lookup needed for C[C@H]1C[C@@H](O)CN(c2cc(Nc3ccc4c(c3)c3c(c(=O)n4C)OCC(F)(F)[C@H](C4CC4)N3)c(F)cn2)C1 , thanks.
Found: 6.61

Lookup: IC50 lookup needed for CC1CC(CC(=O)N2CC(F)(F)C2)CN(c2ncc(Cl)c(Nc3ccc4c(c3)c3c(c(=O)n4C)OCC(F)(F)[C@H](C4CC4)N3)n2)C1 (single isomer, unassigned) [Example 12x17b] , thanks.
Found: 13.2

Lookup: IC50 lookup needed for CC(=O)N(C)[C@@H]1CN(c2ncc(Cl)c(Nc3ccc4c(c3)c3c(c(=O)n4C)OCC(F)(F)[C@H](C4CC4)N3)n2)CCC1(F)F , thanks.
Found: 2.51

Lookup: IC50 lookup needed for Cn1c(=O)c2c(c3cc(Nc4nc(NC5CCC(F)(F)CC5)ncc4Cl)ccc31)N[C@@H](C1CC1)C(F)(F)CO2 , thanks.
Found: 14.5

Lookup: IC50 lookup needed for Cn1c(=O)c2c(c3cc(Nc4nc(N5CC[C@@H](F)[C@H](F)C5)ncc4Cl)ccc31)N[C@@H](C1CC1)C(F)(F)CO2 (racemic) [Example 10b] , thanks.
Found: 15.8

Lookup: IC50 lookup needed for Cn1c(=O)c2c(c3cc(Nc4nc(N5CCC(C#N)CC5)ncc4Cl)ccc31)N[C@@H](C1CC1)C(F)(F)CO2 , thanks.
Found: 3.72

====

target: Trx-6×His-BCL6 (human BCL6 BTB domain covering amino-acid sequence 5-129) (Homo sapiens, UniProt P41182); construct: made in house; test: HTRF assay (BCL6 / BCOR peptide); type: binding; settings: 1 nM Trx-6×His-BCL6, 300 nM BCOR-AF633 peptide, 2 hours incubation at room temperature; read-out: HTRF avg pIC50 (converted)
Give measured log10(IC50) for each item. Keep answers brief.
Annotation: log10 of IC50, nM basis.

Lookup: log10(IC50) lookup needed for Cn1c(=O)c2c(c3cc(Nc4nc(N5CC(O)CC6(CC6)C5)ncc4Cl)ccc31)N[C@@H](C1CC1)C(F)(F)CO2 (mixture of isomers) [Example 11h] , thanks.
Found: 0.75

Lookup: log10(IC50) lookup needed for CC1CCCN(c2ncc(Cl)c(Nc3ccc4c(c3)c3c(c(=O)n4C)OCC(F)(F)[C@H](C4CC4)N3)n2)CC1 (mixture of isomers) [Example 11d] , thanks.
Found: 1.81

Lookup: log10(IC50) lookup needed for CN(C)c1ncc(F)c(Nc2ccc3c(c2)c2c(c(=O)n3C)OCC(F)(F)[C@H](C3CC3)N2)n1 , thanks.
Found: 1.28

Lookup: log10(IC50) lookup needed for Cn1c(=O)c2c(c3cc(Nc4nc(N5C[C@H](O)C[C@H](O)C5)ncc4Cl)ccc31)N[C@@H](C1CC1)C(F)(F)CO2 [Example 11e] , thanks.
Found: -0.06

Lookup: log10(IC50) lookup needed for Cn1c(=O)c2c(c3cc(Nc4nc(N5C[C@H]6CC[C@@H](C5)O6)ncc4F)ccc31)N[C@@H](C1CC1)C(F)(F)CO2 , thanks.
Found: 0.86

Lookup: log10(IC50) lookup needed for CN(CC(C)(C)O)c1ncc(Cl)c(Nc2ccc3c(c2)c2c(c(=O)n3C)OCC(F)(F)[C@H](C3CC3)N2)n1 , thanks.
Found: 0.62

====

biological target: Trx-6×His-BCL6 (human BCL6 BTB domain covering amino-acid sequence 5-129) (Homo sapiens, UniProt P41182); construct: made in house; test: HTRF assay (BCL6 / BCOR peptide); type: binding; settings: 1 nM Trx-6×His-BCL6, 300 nM BCOR-AF633 peptide, 2 hours incubation at room temperature; read-out: HTRF avg pIC50 (converted)
observed.property: IC50 (nM)
A number alone suffices; assume nM.

Lookup: IC50 lookup needed for Cn1c(=O)c2c(c3cc(Nc4nc(N5CCC(F)(F)C(C(=O)N6CCC6)C5)ncc4Cl)ccc31)N[C@@H](C1CC1)C(F)(F)CO2 (mixture of isomers) [Example 12x18] , thanks.
Found: 5.5

Lookup: IC50 lookup needed for CC1CN(c2ncc(F)c(Nc3ccc4c(c3)c3c(c(=O)n4C)OCC(F)(F)[C@H](C4CC4)N3)n2)CC(C)C1(F)F (stereo partly drawn) [Example 13p01] , thanks.
Found: 85.1

Lookup: IC50 lookup needed for Cn1c(=O)c2c(c3cc(Nc4nc(N5CC(C#N)C5)ncc4Cl)ccc31)N[C@@H](C1CC1)C(F)(F)CO2 [Example 11p] , thanks.
Found: 4.07

Lookup: IC50 lookup needed for CC1CN(c2ncc(Cl)c(Nc3ccc4c(c3)c3c(c(=O)n4C)OCC(F)(F)[C@H](C4CC4)N3)n2)CCS1 (mixture of isomers) [Example 12f] , thanks.
Found: 9.55

Lookup: IC50 lookup needed for Cn1c(=O)c2c(c3cc(Nc4nc(N5CCC(F)(CO)CC5)ncc4Cl)ccc31)N[C@@H](C1CC1)C(F)(F)CO2 [Example 9o] , thanks.
Found: 9.33

Lookup: IC50 lookup needed for Cn1c(=O)c2c(c3cc(Nc4nc(N5CCC(F)(F)CC5CO)ncc4Cl)ccc31)N[C@@H](C1CC1)C(F)(F)CO2 (mixture of isomers) [Example 12x50] , thanks.
Found: 7.08

====

target: Trx-6×His-BCL6 (human BCL6 BTB domain covering amino-acid sequence 5-129) (Homo sapiens); construct: made in house; test: HTRF assay (BCL6 / BCOR peptide); format: binding; details: 1 nM Trx-6×His-BCL6, 300 nM BCOR-AF633 peptide, 2 hours incubation at room temperature; read-out: HTRF avg pIC50 (converted)
One threshold, 8 nM, splits the recorded IC50 values: lower ones are Y, equal or higher ones are N.

Lookup: Is it true that IC50 reported for Cn1c(=O)c2c(c3cc(Nc4nc(N5C[C@@H](O)C[C@@H](F)C5)ncc4Cl)ccc31)N[C@@H](C1CC1)C(F)(F)CO2 is less than 8 nM?
Found: Y

Lookup: Is it true that IC50 reported for Cn1c(=O)c2c(c3cc(Nc4nc(N5CC[C@@H]5CO)ncc4Cl)ccc31)N[C@@H](C1CC1)C(F)(F)CO2 [Example 12x33b] is less than 8 nM?
Found: Y

Lookup: Is it true that IC50 reported for Cn1c(=O)c2c(c3cc(Nc4nc(N5CC(C)(C)C5)ncc4Cl)ccc31)N[C@@H](C1CC1)C(F)(F)CO2 [Example 11n] is less than 8 nM?
Found: N

Lookup: Is it true that IC50 reported for CC1CN(c2ncc(Cl)c(Nc3ccc4c(c3)c3c(c(=O)n4C)OCC(F)(F)[C@H](C4CC4)N3)n2)CC(C)S1(=O)=O (stereo partly shown) is less than 8 nM?
Found: Y

Lookup: Is it true that IC50 reported for Cn1c(=O)c2c(c3cc(Nc4nc(N5CCNC(C(F)F)C5)ncc4Cl)ccc31)N[C@@H](C1CC1)C(F)(F)CO2 (stereo partly shown) is less than 8 nM?
Found: Y

Lookup: Is it true that IC50 reported for C[C@H]1C[C@@H](CO)CN(c2ncc(Cl)c(Nc3ccc4c(c3)c3c(c(=O)n4C)OCC(F)(F)[C@H](C4CC4)N3)n2)C1 (racemic) is less than 8 nM?
Found: Y

Lookup: Is it true that IC50 reported for CC1CN(c2ncc(Cl)c(Nc3ccc4c(c3)c3c(c(=O)n4C)OCC(F)(F)[C@H](C4CC4)N3)n2)CC(C)[S+]1[O-] (stereo partly shown) is less than 8 nM?
Found: Y

Lookup: Is it true that IC50 reported for CC1CN(c2ncc(Cl)c(Nc3ccc4c(c3)c3c(c(=O)n4C)OCC(F)(F)[C@H](C4CC4)N3)n2)CC(C)S1 (stereo partly shown) is less than 8 nM?
Found: N

Lookup: Is it true that IC50 reported for Cn1c(=O)c2c(c3cc(Nc4nc(N5CCCC6CC65)ncc4Cl)ccc31)N[C@@H](C1CC1)C(F)(F)CO2 (stereo partly shown) is less than 8 nM?
Found: N

Lookup: Is it true that IC50 reported for CN(C)C[C@@H]1CCCN(c2ncc(Cl)c(Nc3ccc4c(c3)c3c(c(=O)n4C)OCC(F)(F)[C@H](C4CC4)N3)n2)C1 is less than 8 nM?
Found: Y

Lookup: Is it true that IC50 reported for CCC1CCN(c2ncc(Cl)c(Nc3ccc4c(c3)c3c(c(=O)n4C)OCC(F)(F)[C@H](C4CC4)N3)n2)C1 (mixture of isomers) [Example 11y] is less than 8 nM?
Found: N

Lookup: Is it true that IC50 reported for COCC(C)CNc1ncc(Cl)c(Nc2ccc3c(c2)c2c(c(=O)n3C)OCC(F)(F)[C@H](C3CC3)N2)n1 (mixture of isomers) [Example 11m] is less than 8 nM?
Found: Y

Lookup: Is it true that IC50 reported for Cn1c(=O)c2c(c3cc(Nc4nc(N5CC6CCC(C5)N6CC5CC5)ncc4Cl)ccc31)N[C@@H](C1CC1)C(F)(F)CO2 is less than 8 nM?
Found: Y
